In this section we review reported CC50 values for a set of compounds.
Assay overview: Cytotoxicity against human Huh7ET cells by [3H]-thymidine incorporation assay
Format: cell-based
Particulars: Huh7ET cells (Huh-7)
# output: bare number, implied unit µM

Answered cases to consult:
query: Report measured CC50; entry is COC(=O)N[C@H](C(=O)N1CCC[C@H]1c1nc2cc(-c3ccc(-c4ccc5[nH]c([C@@H]6CCCN6C(=O)[C@@H](NC(=O)OC)C(C)C)nc5c4)c(F)c3)ccc2[nH]1)C(C)C
result: 6

query: Find the measured CC50 of COC(=O)N[C@H](C(=O)N1CCC[C@H]1c1nc2cc(-c3cc(C)c(-c4ccc5[nH]c([C@@H]6CCCN6C(=O)[C@@H](NC(=O)OC)C(C)C)nc5c4)cc3C)ccc2[nH]1)C(C)C and report it.
result: 5

query: Could you please provide reported CC50 for COC(=O)N[C@H](C(=O)N1C[C@@H](F)C[C@H]1c1nc2cc(-c3ccc(-c4ccc5[nH]c([C@@H]6C[C@H](F)CN6C(=O)[C@@H](NC(=O)OC)C(C)C)nc5c4)cc3)ccc2[nH]1)C(C)C ? Thanks!
result: 11

New cases:
query: Given the compound COC(=O)N[C@H](C(=O)N1CCC[C@H]1c1nc2ccc(-c3ccc(-c4ccc5nc([C@@H]6CCCN6C(=O)[C@@H](NC(=O)OC)C(C)C)[nH]c5c4)s3)cc2[nH]1)C(C)C , write its reported CC50.
result: 6

query: Answer with the recorded CC50 of COC(=O)N[C@H](C(=O)N1CCC[C@H]1c1nc2cc(-c3cccc(-c4ccc5[nH]c([C@@H]6CCCN6C(=O)[C@@H](NC(=O)OC)C(C)C)nc5c4)c3)ccc2[nH]1)C(C)C only.
result: 6

query: Let me know recorded CC50 for COC(=O)N[C@H](C(=O)N1CCC[C@H]1c1nc2cc(-c3ccc(-c4ccc5[nH]c([C@@H]6CCCN6C(=O)[C@@H](NC(=O)OC)C(C)C)nc5c4)c(C)c3C)ccc2[nH]1)C(C)C , thanks.
result: 7

query: Name the recorded CC50 of the compound listed here: COC(=O)N[C@H](C(=O)N1CCC[C@H]1c1nc2ccc(C#CC#Cc3ccc4nc([C@@H]5CCCN5C(=O)[C@@H](NC(=O)OC)C(C)C)[nH]c4c3)cc2[nH]1)C(C)C
result: 13

###

System: Hepatitis C virus
Assay overview: Antiviral activity against Hepatitis C virus genotype 1b infected in human Huh-5.2 cells assessed as decrease in HCV replicon RNA replication after 4 days by luciferase assay
Assay type: functional, cell-based, Hepacivirus hominis
Particulars: Huh-5-2, 96 h
Parameter: pEC50
pEC50 (log units): -log10 of the concentration in mol/L.

// worked examples, pEC50 included
query: Lab note: record pEC50 of COC(=O)N[C@H](C(=O)N1CCC[C@H]1c1nc2cc(-c3ccc(-c4ccc5[nH]c([C@@H]6CCCN6C(=O)[C@@H](NC(=O)OC)C(C)C)nc5c4)c(C)c3C)ccc2[nH]1)C(C)C tested on Hepatitis C virus.
result: 11.00

query: Write down measured pEC50 (Hepatitis C virus) for this molecule. COC(=O)N[C@H](C(=O)N1CCC[C@H]1c1nc2cc(-c3ccc(-c4ccc5[nH]c([C@@H]6CCCN6C(=O)[C@@H](NC(=O)OC)C(C)C)nc5c4)c(C)c3)ccc2[nH]1)C(C)C
result: 11.22

Please look at the following molecule next.
query: Enter pEC50 (test system Hepatitis C virus) for COC(=O)N[C@H](C(=O)N1C[C@H](C)C[C@H]1c1nc2cc(-c3ccc(-c4ccc5[nH]c([C@@H]6C[C@@H](C)CN6C(=O)[C@@H](NC(=O)OC)C(C)C)nc5c4)cc3)ccc2[nH]1)C(C)C
result: 11.15
